The entries below come with measured degree of damage to the plants (% damage in comparison to the untreated control) values attached.
Tested on: Avena
Assay: Post-emergence test/greenhouse
Type: in vivo
Conditions: 60 g ai./ha, greenhouse, after three weeks
Structures can show the parent of a compound that is named as a salt.

Completed entries (count: 4):
CCCCOc1nn(C(=O)NS(=O)(=O)c2ccccc2C(=O)OC)c(=O)n1C; 50%
CCCOc1nn(C(=O)NS(=O)(=O)c2ccccc2C(=O)OCC)c(=O)n1C; 20%
CCCOc1nn(C(=O)NS(=O)(=O)c2ccccc2C(=O)OC)c(=O)n1C [(I)-Na-salt]; 80%
CCCOc1nn(C(=O)NS(=O)(=O)c2ccccc2C(=O)OC)c(=O)n1CC; 40%

Now turn to the next compound.
*Q* Item COC(=O)c1ccccc1S(=O)(=O)NC(=O)n1nc(OC(C)C)n(C)c1=O.[Na] with Avena - degree of damage to the plants (% damage in comparison to the untreated control)?
*A* 50%

* * *

Tested on: Agropyron
Assay: Post-emergence test/greenhouse
Assay type: in vivo
Details: 60 g ai./ha, greenhouse, after three weeks
Where a name gives a salt, the structure may show the parent alone.
quantity-name: degree of damage to the plants (% damage in comparison to the untreated control) (%)
Respond numerically; units are % and should not be typed.

CCCCOc1nn(C(=O)NS(=O)(=O)c2ccccc2C(=O)OC)c(=O)n1C; 0
COC(=O)c1ccccc1S(=O)(=O)NC(=O)n1nc(OC(C)C)n(C)c1=O.[Na]; 60
CCCOc1nn(C(=O)NS(=O)(=O)c2ccccc2C(=O)OC)c(=O)n1CC; 50
CCCOc1nn(C(=O)NS(=O)(=O)c2ccccc2C(=O)OCC)c(=O)n1C; 70

*Q* Provide the documented degree of damage to the plants (% damage in comparison to the untreated control) with Agropyron as the system for CCCOc1nn(C(=O)NS(=O)(=O)c2ccccc2C(=O)OC)c(=O)n1C [(I)-Na-salt]
*A* 100

* * *

System: Lolium
Assay: Post-emergence test/greenhouse
Type: in vivo
Settings: 60 g ai./ha, greenhouse, after three weeks
Where a name gives a salt, the structure may show the parent alone.
quantity-name: degree of damage to the plants (% damage in comparison to the untreated control) (%)
Numeric answer only, unit % assumed.

// known answers, use as guide
CCCOc1nn(C(=O)NS(=O)(=O)c2ccccc2C(=O)OC)c(=O)n1CC [(F)]; 30
CCCCOc1nn(C(=O)NS(=O)(=O)c2ccccc2C(=O)OC)c(=O)n1C [(A)]; 0
CCCOc1nn(C(=O)NS(=O)(=O)c2ccccc2C(=O)OC)c(=O)n1C [(I)-Na-salt]; 80
CCCOc1nn(C(=O)NS(=O)(=O)c2ccccc2C(=O)OCC)c(=O)n1C [(D)]; 30

Kindly consider the entry below.
*Q* Test system Lolium; read-out degree of damage to the plants (% damage in comparison to the untreated control); what value for COC(=O)c1ccccc1S(=O)(=O)NC(=O)n1nc(OC(C)C)n(C)c1=O.[Na] [(C)] ?
*A* 70
